Data provenance is paper PMC11882969.

- target-system: hCB1 (Homo sapiens, UniProt P21554)
- Sequence (P21554 whole entry): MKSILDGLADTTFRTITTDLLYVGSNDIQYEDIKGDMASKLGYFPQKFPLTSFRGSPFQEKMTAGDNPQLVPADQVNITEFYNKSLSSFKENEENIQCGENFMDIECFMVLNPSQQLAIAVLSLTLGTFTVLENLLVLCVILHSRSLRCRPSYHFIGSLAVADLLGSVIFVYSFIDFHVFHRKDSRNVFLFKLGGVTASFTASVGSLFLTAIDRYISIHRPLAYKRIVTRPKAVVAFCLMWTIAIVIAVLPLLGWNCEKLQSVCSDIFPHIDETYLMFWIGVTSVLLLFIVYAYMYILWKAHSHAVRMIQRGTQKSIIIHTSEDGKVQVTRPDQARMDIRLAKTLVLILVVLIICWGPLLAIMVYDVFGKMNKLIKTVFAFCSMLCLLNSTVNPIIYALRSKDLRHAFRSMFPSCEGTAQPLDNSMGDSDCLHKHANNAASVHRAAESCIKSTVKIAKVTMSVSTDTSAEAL
- assay-summary: bioSensAll ebBRET signaling profiling, hCB1
- Assay type: cell-based
- Design: host or cells: HEK293SL cells, transient PEI transfection
- protocol-conditions: Log [Compound] (M) -12.3979; single replicate values, FigS6a
# thresholds on GoB hCB1 define classes: bottom: < -6; middle: ≥ -6 and < 0.1; top: ≥ 0.1

{"compound": "Cc1nn(Cc2ccc(Cl)cc2)c(C)c1C(=O)OCC1CSc2ccccc2O1 (stereo not drawn)", "group": "middle"}
{"compound": "Cc1cc(C(=O)NC(c2ccccc2)c2ccco2)nn1-c1cccc(C#N)c1 (stereo not drawn)", "group": "top"}
{"compound": "Cc1nc(CC2CC2)oc1-c1nc(Cc2cc3c(cc2Br)OCO3)no1", "group": "bottom"}
{"compound": "COc1cccc(C(NC(=O)c2cc(C)n(-c3cccc(C(F)(F)F)c3)n2)c2ccco2)c1 (stereo not drawn)", "group": "top"}
{"compound": "Cc1c(C(=O)OCC2CSc3ccccc3O2)cnn1Cc1ccccc1 (stereo not drawn)", "group": "bottom"}
{"compound": "COC(=O)[C@@H]1[C@@H]2CCC[C@@H]2CN1C(=O)c1cc(C)n(-c2cccc(C(F)(F)F)c2)n1", "group": "middle"}
{"compound": "COC(=O)C(NC(=O)c1cc(C)n(-c2cccc(F)c2)n1)c1cccs1 (stereo not drawn)", "group": "middle"}
{"compound": "Brc1cc2c(cc1Cc1noc(-c3cnn(CC4CC4)c3)n1)OCO2", "group": "bottom"}
{"compound": "COC(=O)[C@@H]1[C@@H]2CC[C@@H]2CN1C(=O)c1cc(C)n(-c2cccc(C(F)(F)F)c2)n1", "group": "top"}

* * *

- target-system: hCB1 (Homo sapiens)
- assay-summary: bioSensAll ebBRET signaling profiling, hCB1
- Format: cell-based
- Parameters: host or cells: HEK293SL cells, transient PEI transfection
- protocol-conditions: Log [Compound] (M) -8.39794; single replicate values, FigS6a
Classify as follows. Reported GoB hCB1 greater than or equal to 7: T. Reported GoB hCB1 below: F.

{"molecule": "Cc1cc(C(=O)N2CC3(CCC3)[C@@H]2[C@H]2CCCO2)nn1-c1cccc(C(F)(F)F)c1 (single isomer, unassigned)", "group": "F"}
{"molecule": "COC(=O)[C@@H]1[C@@H]2CCC[C@@H]2CN1C(=O)c1cc(C)n(-c2cccc(C(F)(F)F)c2)n1", "group": "T"}
{"molecule": "COC(=O)C(NC(=O)c1cc(C)n(-c2cccc(F)c2)n1)c1cccs1 (centres unmarked)", "group": "F"}
{"molecule": "Cc1cc(C(=O)N(C)C(c2ccco2)c2ccco2)nn1-c1cccc(C(F)(F)F)c1", "group": "F"}
{"molecule": "Cc1cc(C(=O)NC(c2ccco2)c2ccco2)nn1-c1cccc(C(F)(F)F)c1", "group": "T"}
{"molecule": "COC(=O)[C@@H]1[C@@H]2CC[C@@H]2CN1C(=O)c1cc(C)n(-c2cccc(C(F)(F)F)c2)n1", "group": "F"}
{"molecule": "Brc1cc2c(cc1Cc1noc(-c3cnn(CC4CC4)c3)n1)OCO2", "group": "F"}

* * *

Here, each record is paired with measured Gi1 hCB1 data.
- target-system: hCB1 (Homo sapiens)
- assay-summary: bioSensAll ebBRET signaling profiling, hCB1
- Assay type: cell-based
- Set-up: host or cells: HEK293SL cells, transient PEI transfection
- protocol-conditions: Log [Compound] (M) -5.05788; single replicate values, FigS6a
measured-parameter: Gi1 hCB1

{"molecule": "CC(=O)C(c1cccs1)N(C)C(=O)c1cc(C)n(-c2cccc(C(F)(F)F)c2)n1 (stereo not shown)", "measured-parameter": "Gi1 hCB1", "observed-value": 40.28}
{"molecule": "Cc1cc(C(=O)N2CC3(CCC3)[C@H]2[C@H]2CCCO2)nn1-c1cccc(C(F)(F)F)c1", "measured-parameter": "Gi1 hCB1", "observed-value": 64.2374}
{"molecule": "Brc1cc2c(cc1Cc1noc(-c3cnn(CC4CC4)c3)n1)OCO2", "measured-parameter": "Gi1 hCB1", "observed-value": -14.0757}
{"molecule": "Cc1cc(C(=O)N2CC3(CCC3)[C@@H]2[C@H]2CCCO2)nn1-c1cccc(C(F)(F)F)c1 (single isomer, unassigned)", "measured-parameter": "Gi1 hCB1", "observed-value": -2.054}
{"molecule": "Cc1cc(C(=O)N(C)C(c2ccco2)c2ccco2)nn1-c1cccc(C(F)(F)F)c1", "measured-parameter": "Gi1 hCB1", "observed-value": -11.3501}
{"molecule": "Cc1cc(C(=O)NC(c2ccccc2)c2ccco2)nn1-c1cccc(C(F)(F)F)c1 (stereo not shown)", "measured-parameter": "Gi1 hCB1", "observed-value": 48.6204}
{"molecule": "Cc1cc(C(=O)NC(c2ccco2)c2ccco2)nn1-c1cccc(C(F)(F)F)c1", "measured-parameter": "Gi1 hCB1", "observed-value": 80.7948}
{"molecule": "Cn1nc(-c2nnc(C(C)(C)Oc3ccc(C(F)(F)F)cc3)o2)c2ccccc2c1=O", "measured-parameter": "Gi1 hCB1", "observed-value": 53.1046}
{"molecule": "COc1cccc(C(NC(=O)c2cc(C)n(-c3cccc(C(F)(F)F)c3)n2)c2ccco2)c1 (stereo not shown)", "measured-parameter": "Gi1 hCB1", "observed-value": -7.357}
{"molecule": "Cc1c(C(=O)OCC2CSc3ccccc3O2)cnn1Cc1ccccc1 (stereo not shown)", "measured-parameter": "Gi1 hCB1", "observed-value": 16.1253}
{"molecule": "Cc1cc(C(=O)N2CC3(CCC3)[C@@H]2[C@@H]2CCCO2)nn1-c1cccc(C(F)(F)F)c1", "measured-parameter": "Gi1 hCB1", "observed-value": -4.3047}
{"molecule": "COC(=O)[C@@H]1[C@@H]2CC[C@@H]2CN1C(=O)c1cc(C)n(-c2cccc(C(F)(F)F)c2)n1", "measured-parameter": "Gi1 hCB1", "observed-value": 83.6623}
{"molecule": "COC(=O)C(NC(=O)c1cc(C)n(-c2cccc(C(F)(F)F)c2)n1)c1cccs1 (stereo not shown)", "measured-parameter": "Gi1 hCB1", "observed-value": 93.4672}
{"molecule": "COC(=O)C(NC(=O)c1cc(C)n(-c2cccc(F)c2)n1)c1cccs1 (stereo not shown)", "measured-parameter": "Gi1 hCB1", "observed-value": 65.332}
{"molecule": "Cn1nc(-c2nnc(C(C)(C)Oc3ccc(Cl)cc3)o2)c2ccccc2c1=O", "measured-parameter": "Gi1 hCB1", "observed-value": 9.41}
{"molecule": "Cc1cc(C(=O)NC(c2ccccc2)c2ccco2)nn1-c1cccc(C#N)c1 (stereo not shown)", "measured-parameter": "Gi1 hCB1", "observed-value": 28.8564}
{"molecule": "Cc1nn(Cc2ccc(Cl)cc2)c(C)c1C(=O)OCC1CSc2ccccc2O1 (stereo not shown)", "measured-parameter": "Gi1 hCB1", "observed-value": 16.6796}
{"molecule": "COC(=O)[C@@H]1[C@@H]2CCC[C@@H]2CN1C(=O)c1cc(C)n(-c2cccc(Cl)c2)n1 (racemic)", "measured-parameter": "Gi1 hCB1", "observed-value": 66.8428}
{"molecule": "Cc1nc(CC2CC2)oc1-c1nc(Cc2cc3c(cc2Br)OCO3)no1", "measured-parameter": "Gi1 hCB1", "observed-value": -10.1639}
{"molecule": "COC(=O)[C@@H]1[C@@H]2CCC[C@@H]2CN1C(=O)c1cc(C)n(-c2cccc(C(F)(F)F)c2)n1", "measured-parameter": "Gi1 hCB1", "observed-value": 91.2935}
{"molecule": "Cc1cc(C(=O)N(C)C(c2ccccc2)c2ccco2)nn1-c1cccc(C(F)(F)F)c1 (stereo not shown)", "measured-parameter": "Gi1 hCB1", "observed-value": -11.9051}
{"molecule": "Cc1cc(C(=O)N2CC3(CCC3)[C@H]2[C@@H]2CCCO2)nn1-c1cccc(C(F)(F)F)c1", "measured-parameter": "Gi1 hCB1", "observed-value": 72.2386}
